Provenance of the data: paper PMC4336329

- System name: human ether-à-go-go-related gene (hERG) potassium channel (human);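 further: peak tail current of the secondary pulse compared with the same well before compound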
- Experimental protocol: primary screen, population patch clamp on CHO cells stably expressing hERG; higher = less effect of the substance
The campaign covered roughly 310,000 compounds. About 14,000 (4.5%) showed an effect of 50% or more. The effect is printed as a negative number. The sample as a whole holds a higher share of strong results than the screen did.
Kindly supply the reported hERG current change (%, negative = inhibition) at 10uM values for the records listed here.
Numbers only; they are read as %.

input: Output hERG current change (%, negative = inhibition) at 10uM of Cc1ccc(C)c(N2CCN(CCN3CCCCC3)CC2)c1.Cl
output: -3.6

input: Output hERG current change (%, negative = inhibition) at 10uM of Fc1ccccc1N1CCN(CCCc2ccccc2)CC1
output: -64.7

input: Output hERG current change (%, negative = inhibition) at 10uM of O=C(CN1CCN(c2ccccn2)CC1)NCCc1ccccc1
output: -9.55

input: Output hERG current change (%, negative = inhibition) at 10uM of Fc1ccccc1N1CCN(Cc2c(F)cccc2F)CC1
output: 7.89

input: Output hERG current change (%, negative = inhibition) at 10uM of O=C(CCc1ccccc1)N1CCN(c2ccccc2F)CC1
output: 15.9

input: Output hERG current change (%, negative = inhibition) at 10uM of Cc1ccc(C)c(N2CCN(CCCc3ccccc3)CC2)c1
output: -59.9

###

- System name: human ether-à-go-go-related gene (hERG) potassium channel (human, UniProt Q12809);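 further: peak tail current of the secondary pulse compared with the same well before compound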
- Sequence (Q12809 whole entry, looked up): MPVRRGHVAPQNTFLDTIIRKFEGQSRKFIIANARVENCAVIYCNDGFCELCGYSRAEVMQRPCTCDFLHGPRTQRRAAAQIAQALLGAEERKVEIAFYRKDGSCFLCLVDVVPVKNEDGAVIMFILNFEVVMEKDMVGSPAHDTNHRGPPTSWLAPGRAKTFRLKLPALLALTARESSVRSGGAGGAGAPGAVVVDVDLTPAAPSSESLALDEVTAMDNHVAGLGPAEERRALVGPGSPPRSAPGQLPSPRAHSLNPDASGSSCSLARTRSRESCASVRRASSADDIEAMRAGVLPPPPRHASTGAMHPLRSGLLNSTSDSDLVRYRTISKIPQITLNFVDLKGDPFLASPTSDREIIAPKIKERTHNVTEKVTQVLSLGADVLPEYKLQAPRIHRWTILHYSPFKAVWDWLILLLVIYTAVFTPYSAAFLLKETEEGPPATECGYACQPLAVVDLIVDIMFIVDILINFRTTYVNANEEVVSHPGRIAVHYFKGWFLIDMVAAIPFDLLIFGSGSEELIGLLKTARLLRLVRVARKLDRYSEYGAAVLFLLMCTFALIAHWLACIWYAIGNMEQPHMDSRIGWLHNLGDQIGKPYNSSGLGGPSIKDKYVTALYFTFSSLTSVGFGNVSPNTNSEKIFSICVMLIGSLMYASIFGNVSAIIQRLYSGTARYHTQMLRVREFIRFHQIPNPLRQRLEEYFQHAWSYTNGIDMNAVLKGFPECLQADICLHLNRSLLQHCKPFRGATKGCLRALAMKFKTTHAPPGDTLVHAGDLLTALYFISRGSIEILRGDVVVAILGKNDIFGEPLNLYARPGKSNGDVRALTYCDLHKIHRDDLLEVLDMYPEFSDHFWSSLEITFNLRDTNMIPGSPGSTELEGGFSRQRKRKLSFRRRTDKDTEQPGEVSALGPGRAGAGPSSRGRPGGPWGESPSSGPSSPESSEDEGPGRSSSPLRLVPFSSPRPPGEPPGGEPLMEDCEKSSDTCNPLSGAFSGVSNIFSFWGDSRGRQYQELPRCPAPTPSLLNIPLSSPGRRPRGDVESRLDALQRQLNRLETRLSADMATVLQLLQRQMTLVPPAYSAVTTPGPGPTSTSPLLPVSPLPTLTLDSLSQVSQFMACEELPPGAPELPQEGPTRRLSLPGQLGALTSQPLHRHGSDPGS
- Experimental protocol: primary screen, population patch clamp on CHO cells stably expressing hERG; higher = less effect of the substance
Hit rate of the full screen: of about 310,000 compounds, about 14,000 (4.5%) showed an effect of 50% or more. The effect is printed as a negative number. Shown is part of a subset that was picked to be rich in strong results.
Measurement type: hERG current change (%, negative = inhibition) at 10uM (%)
Numbers only; they are read as %.

input: Output hERG current change (%, negative = inhibition) at 10uM of CCCCNC(=O)[C@H](CSCc1ccccc1)N1Cc2ccccc2C1=O
output: -68.5

input: Output hERG current change (%, negative = inhibition) at 10uM of O=C(NCCCN1CCCC1=O)[C@H](CSCc1ccccc1)N1Cc2ccccc2C1=O
output: 1.78

input: Output hERG current change (%, negative = inhibition) at 10uM of O=C(NCCCN1CCCC1)[C@H](CSCc1ccccc1)N1Cc2ccccc2C1=O
output: -56.8

input: Output hERG current change (%, negative = inhibition) at 10uM of CC1(C)Nc2ccccc2C(=O)N1c1ccccc1
output: 20.5

input: Output hERG current change (%, negative = inhibition) at 10uM of COCCNC(=O)[C@H](CSCc1ccccc1)N1Cc2ccccc2C1=O
output: -42.6

input: Output hERG current change (%, negative = inhibition) at 10uM of COc1ccccc1NC(=O)Nc1nc(CC(=O)Nc2cccc(F)c2)cs1
output: -3.26

input: Output hERG current change (%, negative = inhibition) at 10uM of CC1=C(C(=O)OCC2CCCO2)C(c2ccccc2Cl)NC(=O)N1 (stereo not shown)
output: 14.1

input: Output hERG current change (%, negative = inhibition) at 10uM of CC(C)CCNC(=O)[C@H](CSCc1ccccc1)N1Cc2ccccc2C1=O
output: -61

input: Output hERG current change (%, negative = inhibition) at 10uM of COc1ccc(OC)c(NC(=O)C(C)Oc2ccc(Br)cc2)c1 (stereo not shown)
output: 5.96

input: Output hERG current change (%, negative = inhibition) at 10uM of COc1cccc(NC(=O)c2ccc3c(c2)CCN3S(C)(=O)=O)c1
output: 3.4
